The origin of these recorded values is the supplement of paper PMC11417369.

# Test system: PfAP2-HC AP2 domain (GST-tagged)
# test_details: gcPBM binding intensity (ln(normalized median fluorescence intensity)); higher = stronger DNA binding
In all, about 25,000 sequences were measured (“ln(normalized median fluorescence intensity)”: median about 9.7, highest 2% from about 11 on). What follows is part of a selection rich in the highest values, with near analogues and random picks from the rest.
Entry flag: yes if gcPBM binding intensity (ln) reaches 10; no if it does not.

# example entries with known answers
[[record]]
polymer_sequence = "ACAAAATAAAAACACACACACAAACACAAAAAAATA [CACACA_site3390]"
class_label = "yes"

[[record]]
polymer_sequence = "TTATAATTATATACATGTACATATAATACATATATA [XGTACX_site8904]"
class_label = "no"

[[record]]
polymer_sequence = "ACTTGACACGGACACACACACATATATAAAAAAAAA [CACACA_site4576]"
class_label = "yes"


Would you kindly look at the next entry?
Query: # bool: gcPBM binding intensity (ln) of AAAAAAAAAAAAAACACACACACAAAATAAACAAAC [CACACA_site2720] >= 10
Reply: yes
